All values here come from ChEMBL document CHEMBL3102744.

# Test System: Tyrosinase (Agaricus bisporus)
# Assay Text: Competitive inhibition of mushroom tyrosinase using L-DOPA as substrate preincubated for 10 mins with substrate followed by enzyme addition measured after 15 mins by Dixon plot analysis
pKi: −log10 of the molar value.
Label scheme for pKi: lower than 5 is f, 5 and above is t.

Use the examples below as a reference point.
CC(C)=CCc1c2c(c(O)c3c1O[C@H](c1ccc(O)cc1)CC3=O)C=CC(C)(C)O2 ... f
CC(C)=CCc1c2c(c(O)c3c1O[C@H](c1ccc(O)cc1O)CC3=O)C=CC(C)(C)O2 ... t

Now consider a different molecule.
query: Check if pKi >= 5 (inclusive). Item: COc1ccc(CCC(=O)c2c(O)c3c(c4c2OC(C(C)(C)O)C4)OC(C)(C)C=C3)cc1 (stereo unspecified)
result: t

----------
# Test System: Tyrosinase (Agaricus bisporus)
# Sequence (O42713 whole entry): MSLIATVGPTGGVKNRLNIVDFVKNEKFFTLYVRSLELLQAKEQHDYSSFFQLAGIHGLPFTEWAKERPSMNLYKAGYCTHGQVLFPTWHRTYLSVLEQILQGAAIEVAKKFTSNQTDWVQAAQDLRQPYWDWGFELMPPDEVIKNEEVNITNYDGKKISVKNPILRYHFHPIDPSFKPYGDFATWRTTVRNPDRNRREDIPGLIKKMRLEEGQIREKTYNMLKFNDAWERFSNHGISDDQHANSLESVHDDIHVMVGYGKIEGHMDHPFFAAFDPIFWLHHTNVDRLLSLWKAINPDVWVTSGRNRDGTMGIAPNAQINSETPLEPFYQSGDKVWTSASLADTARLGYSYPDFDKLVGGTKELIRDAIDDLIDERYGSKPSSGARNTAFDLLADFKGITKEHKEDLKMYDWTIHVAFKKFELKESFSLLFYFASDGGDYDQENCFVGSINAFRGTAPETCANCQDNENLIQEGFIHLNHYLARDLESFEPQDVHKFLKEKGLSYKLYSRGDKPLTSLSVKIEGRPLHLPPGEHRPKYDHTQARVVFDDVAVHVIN
# Assay Text: Competitive inhibition of mushroom tyrosinase using L-DOPA as substrate preincubated for 10 mins with substrate followed by enzyme addition measured after 15 mins by Dixon plot analysis
Attribute: Ki

// worked examples, Ki included
COc1ccc([C@@H]2CC(=O)c3c(O)c4c(c(CC=C(C)C)c3O2)OC(C)(C)C=C4)c(O)c1 [KHONKLONGINOL H] ... 8.15 µM
COc1ccc(CCC(=O)c2ccc3c(c2O)CC(O)C(C)(C)O3)cc1 (stereo not drawn) ... 13.3 µM

query: Find the measured Ki: item COc1ccc(CCC(=O)c2c(O)c(CC=C(C)C)c3c(c2O)CC(O)C(C)(C)O3)cc1 (stereo not drawn) , target or system Tyrosinase (Agaricus bisporus).
result: 8.16 µM
